# measurement_target: EPHB3 (human) (UniProt P54753)
# Sequence (P54753 whole entry, looked up): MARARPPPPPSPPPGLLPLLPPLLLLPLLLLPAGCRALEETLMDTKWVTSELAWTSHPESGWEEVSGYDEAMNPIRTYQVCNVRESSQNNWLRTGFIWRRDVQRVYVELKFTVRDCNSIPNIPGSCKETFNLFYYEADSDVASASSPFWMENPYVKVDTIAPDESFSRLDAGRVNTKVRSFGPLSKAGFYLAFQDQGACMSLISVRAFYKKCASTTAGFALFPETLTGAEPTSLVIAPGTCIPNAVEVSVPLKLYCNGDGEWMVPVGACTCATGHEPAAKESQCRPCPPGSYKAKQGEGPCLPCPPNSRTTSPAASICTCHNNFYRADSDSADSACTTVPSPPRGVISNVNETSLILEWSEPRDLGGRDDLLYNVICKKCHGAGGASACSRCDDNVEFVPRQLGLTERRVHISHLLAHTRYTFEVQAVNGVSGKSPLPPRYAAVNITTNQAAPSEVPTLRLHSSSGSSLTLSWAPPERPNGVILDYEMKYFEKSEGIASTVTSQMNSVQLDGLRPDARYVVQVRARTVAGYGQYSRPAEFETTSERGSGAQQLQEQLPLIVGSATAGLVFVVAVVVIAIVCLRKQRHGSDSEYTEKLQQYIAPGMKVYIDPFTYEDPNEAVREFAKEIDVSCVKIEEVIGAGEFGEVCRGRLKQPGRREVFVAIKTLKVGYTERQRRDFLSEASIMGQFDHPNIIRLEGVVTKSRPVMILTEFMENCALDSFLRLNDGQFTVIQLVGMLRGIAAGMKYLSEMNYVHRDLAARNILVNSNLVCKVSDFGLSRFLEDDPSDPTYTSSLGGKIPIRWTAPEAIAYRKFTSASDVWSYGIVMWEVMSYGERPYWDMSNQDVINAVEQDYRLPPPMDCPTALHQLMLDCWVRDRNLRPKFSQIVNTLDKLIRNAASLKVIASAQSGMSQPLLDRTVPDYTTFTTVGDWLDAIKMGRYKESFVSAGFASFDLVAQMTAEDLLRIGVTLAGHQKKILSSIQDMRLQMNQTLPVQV
# assay_summary: KINOMEscan competition binding
# condition_details: compound 10.0 µM
endpoint_name: kinase still bound, per cent of control
Please make sure the unit comes right after the number.

Some solved cases for reference:
{"smiles_text": "CN1C(=O)c2ccccc2N(C)c2nc(Nc3ccc(N4CCC(O)CC4)cc3)ncc21", "reported_measurement": "100%"}
{"smiles_text": "COc1cc(N2CCN(C)CC2)ccc1Nc1ncc2c(n1)N(C)c1ccccc1N(C)C2=O", "reported_measurement": "100%"}
{"smiles_text": "COc1cc(N2CCN(C)CC2)ccc1Nc1ncc2c(n1)N(C)c1sccc1C(=O)N2C", "reported_measurement": "93%"}
{"smiles_text": "CN1CCN(c2ccc(C(=O)Nc3ncc4c(n3)N(C)c3ccccc3C(=O)N4C)cc2)CC1", "reported_measurement": "100%"}

Can you look up the measured kinase still bound, per cent of control of COc1cc(N2CCN(C)CC2)ccc1Nc1ncc2c(n1)Nc1ccccc1NC2=O for me?
93%

Can you look up the measured kinase still bound, per cent of control of O=C1NC(=O)/C(=C/c2c[nH]c(=O)c(-c3ccc(N4CCNCC4)nc3)c2)S1 for me?
91%

Can you look up the measured kinase still bound, per cent of control of COc1cc(N2CCC(O)CC2)ccc1Nc1ncc2c(n1)N1CCc3cccc(c31)C(=O)N2C for me?
100%

Can you look up the measured kinase still bound, per cent of control of CN1C(=O)c2ccccc2N(C)c2nc(NS(=O)(=O)c3ccc(N)cc3)ncc21 for me?
100%
